Catalogue of compounds with associated MIC S. aureus
# Test system: S. aureus
# assay-protocol: Minimum inhibitory concentration (MIC), microtiter broth incubation
# Format: cell-based
# measurement-conditions: 0.5x trypticase soy broth, 37° C., 18-24 hours; lowest concentration with no growth
Form entry: value (µg/mL) — number only.

Qu. Report MIC S. aureus for CC(CCC(=O)C(C)(C)O)C1CCC2C3C(O)CC4CC(NCCCNCCCCN)CCC4(C)C3CCC12C (stereo not shown) please.
Ans. 31

***
Qu. Report MIC S. aureus for CC(COS(=O)(=O)O)C(O)CCC(C)C1CCC2C3C(O)CC4CC(NCCCNCCCCNCCCN)CCC4(C)C3CCC12C (stereo not shown) please.
Ans. 31

Qu. Now try CC(CO)C(=O)CCC(C)C1CCC2C3C(O)CC4CC(NCCCNCCCCN)CCC4(C)C3CCC12C (stereo not shown) .
Ans. 8

Qu. Now try CC(C)C(CCC(C)C1CCC2C3C(=O)CC4CC(NCCCNCCCCN)CCC4(C)C3CCC12C)OS(=O)(=O)O (stereo not shown) .
Ans. 2

Qu. Now try CC(CO)C(O)CCC(C)C1CCC2C3C(O)CC4CC(NCCCNCCCCN)CCC4(C)C3CCC12C (stereo not shown) .
Ans. 63
